Provenance of the data: ChEMBL document CHEMBL1201862

Biological target: Endoribonuclease toxin MazF (Escherichia coli K-12)
Sequence (P0AE70 whole entry): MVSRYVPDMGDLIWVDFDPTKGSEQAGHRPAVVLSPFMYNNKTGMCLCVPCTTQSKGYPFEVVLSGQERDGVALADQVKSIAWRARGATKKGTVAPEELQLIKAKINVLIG
Assay: activation of MazEF endoribonuclease cleavage – biochemical, fluorescence, single-stranded RNA substrate, uHTS hits, dose response (AID 588481)
Assay type: functional
Calls of active or inactive are those of the source. Rule as the data show it: active = EC50 of 20 µM or less and inactive = more.
QUANTITY_MEASURED: EC50

See these solved cases before continuing.
[[record]]
compound = "Cc1[nH]c2ccccc2c1/C=C(\\C#N)C(=O)NCc1ccccc1"
quantity_measured = "EC50"
observed_result = "> 99 µM (inactive)"

[[record]]
compound = "O=c1c(O)cccc2cc(O)c(O)c(O)c12"
quantity_measured = "EC50"
observed_result = "80.3 µM (inactive)"

[[record]]
compound = "CCN(CC)c1nc2ccccc2nc1C(C#N)C(=O)NCCc1ccccc1 (centres undefined)"
quantity_measured = "EC50"
observed_result = "> 99 µM (inactive)"


For the compound shown here, `CCOc1ccccc1C(=O)Nc1cc(Cl)ccc1O` , give the reported EC50.
38 µM (inactive)
